Every entry's value here was drawn from patent US20150086562A1.

# Lookup of reported RMF (Daudi Internalization by Confocal) keyed by entry
# study-target: T1, CD22 protein expressed on the surface of Daudi cells (human, UniProt P20273 20-847)
# T1 construct: whole, on cells; also called human CD22; cell surface CD22
# T1 sequence (looked up): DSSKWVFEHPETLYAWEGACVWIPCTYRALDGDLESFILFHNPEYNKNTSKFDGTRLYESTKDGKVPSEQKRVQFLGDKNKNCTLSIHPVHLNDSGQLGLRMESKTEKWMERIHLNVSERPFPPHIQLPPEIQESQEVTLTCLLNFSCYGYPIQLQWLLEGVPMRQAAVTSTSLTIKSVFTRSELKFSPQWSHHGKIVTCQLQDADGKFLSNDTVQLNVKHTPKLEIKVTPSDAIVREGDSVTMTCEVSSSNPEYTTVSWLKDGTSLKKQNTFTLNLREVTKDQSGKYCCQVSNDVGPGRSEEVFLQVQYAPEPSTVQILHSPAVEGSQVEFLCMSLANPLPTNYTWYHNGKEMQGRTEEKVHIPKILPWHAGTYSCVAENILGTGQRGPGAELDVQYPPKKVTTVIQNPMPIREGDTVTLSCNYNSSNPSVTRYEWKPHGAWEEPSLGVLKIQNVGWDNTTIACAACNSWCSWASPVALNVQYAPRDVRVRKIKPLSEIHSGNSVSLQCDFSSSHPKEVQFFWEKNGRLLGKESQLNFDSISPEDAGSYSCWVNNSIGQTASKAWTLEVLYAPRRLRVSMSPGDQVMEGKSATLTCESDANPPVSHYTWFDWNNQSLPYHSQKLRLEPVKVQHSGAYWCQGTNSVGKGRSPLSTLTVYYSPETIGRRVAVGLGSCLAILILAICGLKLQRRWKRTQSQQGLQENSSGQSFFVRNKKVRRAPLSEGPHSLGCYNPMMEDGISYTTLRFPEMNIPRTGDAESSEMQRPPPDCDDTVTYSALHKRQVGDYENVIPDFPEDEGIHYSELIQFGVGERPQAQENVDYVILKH
# assay-summary: Quantitative confocal immunofluorescence of directly FITC-labelled antibody (5 ug/ml, 45 min on ice) on Daudi cells. paragraph 243 calls these 'RMF surface binding values'.

The cases that follow already have their RMF (Daudi Internalization by Confocal) on record.
- VM1006 (antibody, V domains shown, Humanized antibody with human constant region; also called anti-CD22 Mab clone VM1006) VH: QVQLVQSGAEVKKPGASVKVSCKASGYVFTSYWLHWIRQSPSRGLEWLGYINPRNDYTEYNRIFKGRFVFSLDTSVSTAYLQICSLKAEDTAVYYCARRGITTFYWGQG VL: DIQMTQSPSSLSASVGDRVTITCKSSQSVLYSAVEKNYLAWYQQKPGKAPKLLIYWASTRERGIPDRFSGSGSGTDFTLTISRLEPEDFAVYYCKQYLSSWTFGQG: ~200 RMF
- VM1001 (antibody, V domains shown, Humanized antibody with human constant region; also called anti-CD22 Mab clone VM1001) VH: QVQLVQSGAEVKKPGASVKVSCKASGYVFTSYWLHWIRQSPSRGLEWLGYINPRNDYTEYNRIFKGRLTISKDTSKNQVVLTMTNMDPVDTATYYCARRGITTFYWGQG VL: EIVLTQSPATLSLSPGERATLSCKSSQSVLYSAVEKNYLAWYQQKPGQAPRLLIYWASTRERGIPDRFSGSGSGTDFTLTISRLEPEDFAVYYCKQYLSSWTFGQG: ~100 RMF

Fill in: RMF (Daudi Internalization by Confocal) of VM1000 (antibody, V domains shown, Humanized antibody with human constant region; also called anti-CD22 Mab clone VM1000) VH: QVQLVQSGAEVKKPGASVKVSCKASGYVFTSYWLHWIRQSPSRGLEWLGYINPRNDYTEYNRIFKGRLTISKDTSKNQVVLTMTNMDPVDTATYYCARRGITTFYWGQG VL: EIVLTQSPATLSLSPGERATLSCKSSQSVLYSAVEKNYLAWYQQKPGKAPKLLIYWASTRERGVPSRFSGSGSGTDFTFTISSLQPEDIATYYCKQYLSSWTFGQG is ___
~100 RMF
